Data provenance is PubChem BioAssay AID2060497.

Entries and their IC50 values follow.
tested on: 317291-083-R-J1-PDC complex spheroids, viability; test: Anticancer human tumor 317291-083-R-J1-PDC patient-derived soft tissue sarcoma cell line growth inhibition [GQUAD]; settings: curve of first compound; second compound 1 µM
Give a bare numeral; the unit nM is implied.

Before answering, review these 4 worked examples.
>>> measured_value("COc1ccc([C@@H](O)c2cc(-c3ncnc4cc(N5CCOCC5)ccc34)c(F)cc2Cl)nn1 + CN(C)c1ccc(Nc2c3ccc(NC(=O)CCN4CCCC4)cc3nc3cc(NC(=O)CCN4CCCC4)ccc23)cc1")
114
>>> measured_value("COc1cc(C2c3cc4c(cc3C(OC3OC5COC(C)OC5C(O)C3O)C3COC(=O)C23)OCO4)cc(OC)c1O (stereo unspecified) + CN(C)c1ccc(Nc2c3ccc(NC(=O)CCN4CCCC4)cc3nc3cc(NC(=O)CCN4CCCC4)ccc23)cc1")
55.4
>>> measured_value("Cn1ncnc1[C@H]1c2n[nH]c(=O)c3cc(F)cc(c23)N[C@@H]1c1ccc(F)cc1 + CN(C)c1ccc(Nc2c3ccc(NC(=O)CCN4CCCC4)cc3nc3cc(NC(=O)CCN4CCCC4)ccc23)cc1")
14.9
>>> measured_value("CC(C)n1c(=O)n(C)c2cnc3cc(F)c(-c4ccc(OCCCN5CCCCC5)nc4)cc3c21 + CN(C)c1ccc(Nc2c3ccc(NC(=O)CCN4CCCC4)cc3nc3cc(NC(=O)CCN4CCCC4)ccc23)cc1")
42.8

Query string: Query (molecule): CC1COCCN1c1cc(C2(S(C)(=N)=O)CC2)nc(-c2ccnc3[nH]ccc23)n1 (stereo unspecified) + CN(C)c1ccc(Nc2c3ccc(NC(=O)CCN4CCCC4)cc3nc3cc(NC(=O)CCN4CCCC4)ccc23)cc1 ; field requested: IC50
Result string: 77.3

Query string: Entry C=CC(=O)N1CCN(c2nc(=O)n(-c3c(C)ccnc3C(C)C)c3nc(-c4c(O)cccc4F)c(F)cc23)C(C)C1 (stereo unspecified) + CN(C)c1ccc(Nc2c3ccc(NC(=O)CCN4CCCC4)cc3nc3cc(NC(=O)CCN4CCCC4)ccc23)cc1 : reported IC50 = ?
Result string: 1420

* * *

Listed next: entries and their corresponding IC50.
System: 317291-083-R-J1-PDC complex spheroids, viability
Experiment: Anticancer human tumor 317291-083-R-J1-PDC cell line growth inhibition [GQUAD];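 note: spheroids exposed to compounds for one week before readout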
Details: curve of first compound; second compound 1 µM
Source text: DNA G-quadruplex Stabilizer Agents in Combinations in Complex Spheroids A high-throughput screen of multi-cell type tumor spheroids was designed to identify active combinations of DNA G-quadruplex stabilizer agents and targeted small molecules. […] Compounds. […] If the clinical Cmax for an agent had not been determined, the highest concentration tested was 10 microM. […]
Provide the reading as a plain figure in nM.

Use these answered entries as a reference point.
>>> measured_value("CC1COCCN1c1cc(-c2ccnn2C)c2ccnc(-c3ccn[nH]3)c2n1 (stereo unspecified) + Cc1[nH]c2ccc(F)cc2c1-c1nc2c3cccnc3c3ncccc3c2[nH]1")
62.5
>>> measured_value("CCCS(=O)(=O)Nc1ccc(F)c(C(=O)c2c[nH]c3ncc(-c4ccc(Cl)cc4)cc23)c1F + Cc1[nH]c2ccc(F)cc2c1-c1nc2c3cccnc3c3ncccc3c2[nH]1")
343
>>> measured_value("CC(C)(O)C1CCC(Nc2ccc3ncc(-c4cccc(C(F)(F)F)c4)n3n2)CC1 (stereo unspecified) + Cc1[nH]c2ccc(F)cc2c1-c1nc2c3cccnc3c3ncccc3c2[nH]1")
114

Query string: Please look up its IC50: C=CC(=O)N1CCN(c2nc(=O)n(-c3c(C)ccnc3C(C)C)c3nc(-c4c(O)cccc4F)c(F)cc23)C(C)C1 (stereo unspecified) + Cc1cnc(CNC(=O)c2c(=O)c3ccc(N4CCCN(C)CC4)nc3n3c2sc2ccccc23)cn1
Result string: 153

Query string: Requested field: IC50. Item: CC[C@@]1(O)C(=O)OCc2c1cc1n(c2=O)Cc2cc3c(CN(C)C)c(O)ccc3nc2-1 + Cc1[nH]c2ccc(F)cc2c1-c1nc2c3cccnc3c3ncccc3c2[nH]1
Result string: 60.7

* * *

viability, T/C reference
system: 317291-083-R-J1-PDC complex spheroids, viability; test: Anticancer human tumor 317291-083-R-J1-PDC cell line growth inhibition [GQUAD]; details: second compound 0.0316 µM; first compound 0.000999 µM; stronger effect = lower value;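 note: spheroids exposed to compounds for one week before readout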;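 for viability, T/C: percent viability relative to DMSO vehicle wells taken as 100%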
Give just the number in %; leave the unit off.

>>> measured_value("CC[C@@]1(O)C(=O)OCc2c1cc1n(c2=O)Cc2cc3c(CN(C)C)c(O)ccc3nc2-1 + CN(C)c1ccc(Nc2c3ccc(NC(=O)CCN4CCCC4)cc3nc3cc(NC(=O)CCN4CCCC4)ccc23)cc1")
99.5

Query string: Which viability, T/C is listed for Cc1[nH]c2ccccc2c1CCNCc1ccc(/C=C/C(=O)NO)cc1 + Cc1[nH]c2ccc(F)cc2c1-c1nc2c3cccnc3c3ncccc3c2[nH]1 ?
Result string: 114

Query string: Endpoint output: viability, T/C of Cn1ncnc1[C@H]1c2n[nH]c(=O)c3cc(F)cc(c23)N[C@@H]1c1ccc(F)cc1 + CN(C)c1ccc(Nc2c3ccc(NC(=O)CCN4CCCC4)cc3nc3cc(NC(=O)CCN4CCCC4)ccc23)cc1 . Value?
Result string: 112

Query string: Item CC[C@@]1(O)C(=O)OCc2c1cc1n(c2=O)Cc2cc3c(CN(C)C)c(O)ccc3nc2-1 + Cc1cnc(CNC(=O)c2c(=O)c3ccc(N4CCCN(C)CC4)nc3n3c2sc2ccccc23)cn1 has what recorded viability, T/C?
Result string: 86.2

Query string: For Cc1[nH]c2ccccc2c1CCNCc1ccc(/C=C/C(=O)NO)cc1 + Cc1cnc(CNC(=O)c2c(=O)c3ccc(N4CCCN(C)CC4)nc3n3c2sc2ccccc23)cn1 , what is its reported viability, T/C?
Result string: 101

Query string: // returns reported viability, T/C for input CC[C@@]1(O)C(=O)OCc2c1cc1n(c2=O)Cc2cc3c(CN(C)C)c(O)ccc3nc2-1 + Cc1[nH]c2ccc(F)cc2c1-c1nc2c3cccnc3c3ncccc3c2[nH]1
Result string: 97.6

Query string: Given the compound CCc1c2c(nc3ccc(O)cc13)-c1cc3c(c(=O)n1C2)COC(=O)[C@]3(O)CC + Cc1[nH]c2ccc(F)cc2c1-c1nc2c3cccnc3c3ncccc3c2[nH]1 , what is its reported viability, T/C?
Result string: 71.4

* * *

system: 317291-083-R-J1-PDC complex spheroids, viability; test: Anticancer human tumor 317291-083-R-J1-PDC cell line growth inhibition [GQUAD]; settings: second compound 10 µM; first compound 0.000999 µM; active = viability on the fitted dose curve at most 10% of control; inactive = the rest;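 note: spheroids exposed to compounds for one week before readout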
Mark one answer only. Choices: TRUE = active, FALSE = inactive

Consider the worked cases shown below.
>>> class_name("Cc1[nH]c2ccccc2c1CCNCc1ccc(/C=C/C(=O)NO)cc1 + Cc1cnc(CNC(=O)c2c(=O)c3ccc(N4CCCN(C)CC4)nc3n3c2sc2ccccc23)cn1")
"TRUE"
>>> class_name("CC[C@@]1(O)C(=O)OCc2c1cc1n(c2=O)Cc2cc3c(CN(C)C)c(O)ccc3nc2-1 + CN(C)c1ccc(Nc2c3ccc(NC(=O)CCN4CCCC4)cc3nc3cc(NC(=O)CCN4CCCC4)ccc23)cc1")
"FALSE"

Query string: So what was the verdict on Cc1[nH]c2ccccc2c1CCNCc1ccc(/C=C/C(=O)NO)cc1 + Cc1[nH]c2ccc(F)cc2c1-c1nc2c3cccnc3c3ncccc3c2[nH]1 in this test?
Result string: FALSE

Query string: What was the test verdict on Cn1ncnc1[C@H]1c2n[nH]c(=O)c3cc(F)cc(c23)N[C@@H]1c1ccc(F)cc1 + CN(C)c1ccc(Nc2c3ccc(NC(=O)CCN4CCCC4)cc3nc3cc(NC(=O)CCN4CCCC4)ccc23)cc1 ?
Result string: TRUE

Query string: What did the test return for CCc1c2c(nc3ccc(O)cc13)-c1cc3c(c(=O)n1C2)COC(=O)[C@]3(O)CC + Cc1[nH]c2ccc(F)cc2c1-c1nc2c3cccnc3c3ncccc3c2[nH]1 ?
Result string: FALSE

Query string: Outcome? Cn1ncnc1[C@H]1c2n[nH]c(=O)c3cc(F)cc(c23)N[C@@H]1c1ccc(F)cc1 + Cc1cnc(CNC(=O)c2c(=O)c3ccc(N4CCCN(C)CC4)nc3n3c2sc2ccccc23)cn1
Result string: FALSE

Query string: Record request — test call for CC[C@@]1(O)C(=O)OCc2c1cc1n(c2=O)Cc2cc3c(CN(C)C)c(O)ccc3nc2-1 + Cc1cnc(CNC(=O)c2c(=O)c3ccc(N4CCCN(C)CC4)nc3n3c2sc2ccccc23)cn1
Result string: FALSE

Query string: Any idea what this test logged for CC[C@@]1(O)C(=O)OCc2c1cc1n(c2=O)Cc2cc3c(CN(C)C)c(O)ccc3nc2-1 + Cc1[nH]c2ccc(F)cc2c1-c1nc2c3cccnc3c3ncccc3c2[nH]1 ?
Result string: FALSE

Query string: Recorded test call requested for Cc1[nH]c2ccccc2c1CCNCc1ccc(/C=C/C(=O)NO)cc1 + CN(C)c1ccc(Nc2c3ccc(NC(=O)CCN4CCCC4)cc3nc3cc(NC(=O)CCN4CCCC4)ccc23)cc1
Result string: TRUE

Query string: How did this test come out for Cn1ncnc1[C@H]1c2n[nH]c(=O)c3cc(F)cc(c23)N[C@@H]1c1ccc(F)cc1 + Cc1[nH]c2ccc(F)cc2c1-c1nc2c3cccnc3c3ncccc3c2[nH]1 ?
Result string: FALSE

Query string: Could you kindly confirm the outcome this assay logged for CCc1c2c(nc3ccc(O)cc13)-c1cc3c(c(=O)n1C2)COC(=O)[C@]3(O)CC + Cc1cnc(CNC(=O)c2c(=O)c3ccc(N4CCCN(C)CC4)nc3n3c2sc2ccccc23)cn1 ?
Result string: FALSE

Query string: Hello, I am checking results. What call was entered for CCc1c2c(nc3ccc(O)cc13)-c1cc3c(c(=O)n1C2)COC(=O)[C@]3(O)CC + CN(C)c1ccc(Nc2c3ccc(NC(=O)CCN4CCCC4)cc3nc3cc(NC(=O)CCN4CCCC4)ccc23)cc1 ?
Result string: TRUE
